EXPERIMENTAL PROTOCOL: in vitro
Type: cell-based
EXPERIMENTAL CONDITIONS: human
EXPERIMENTAL ENDPOINT: CC50 at 3 days (µM)
Provide the reading as a plain figure in µM.

// worked examples, CC50 at 3 days included
Prompt line: Look up CC50 at 3 days for this compound: CN(C)Cc1cccc(-c2ccc3ncc(=O)n(Cc4nc5cc(F)ccc5n4CCCCF)c3c2)c1 [Compound P7]
Response line: 17.6

Prompt line: Look up CC50 at 3 days for this compound: CC(C)CCn1c(CN2C(=O)CN(C3CC3)c3ccncc32)nc2nc(Cl)ccc21 [Compound P22]
Response line: 60.7

***
Prompt line: Look up CC50 at 3 days for this compound: O=c1cnc2ccc(-c3ccccc3)cc2n1Cc1nc2cc(F)ccc2n1CCCCF [Compound P6]
Response line: 42.8

Prompt line: Look up CC50 at 3 days for this compound: CS(=O)(=O)CCCn1c(Cn2c(=O)cnc3cc(F)ccc32)nc2cc(Br)ccc21 [Compound P25]
Response line: 64

Prompt line: Look up CC50 at 3 days for this compound: O=C1CN(C2CC2)c2ccncc2N1Cc1nc2cc(F)ccc2n1CCCCF [Compound P12]
Response line: 50.1

----------
Catalogue of CC50 at 3 days values
EXPERIMENTAL PROTOCOL: in vitro
Type: cell-based
EXPERIMENTAL CONDITIONS: human
Provide the reading as a plain figure in µM.

Prompt line: Look up CC50 at 3 days for this compound: CC(C)CCn1c(Cn2c(=O)cnc3ccc(Br)cc32)nc2nc(Cl)ccc21
Response line: 46.5

Prompt line: Look up CC50 at 3 days for this compound: CC(C)CCn1c(Cn2c(=O)cnc3ccc(-c4ccsc4)cc32)nc2nc(Cl)ccc21
Response line: 27.6

***
Prompt line: Look up CC50 at 3 days for this compound: CC(C)CCn1c(Cn2c(=O)cnc3ccc(-c4cccn4C(=O)OC(C)(C)C)cc32)nc2nc(Cl)ccc21
Response line: 42.5

----------
EXPERIMENTAL PROTOCOL: in vitro
Format: cell-based
EXPERIMENTAL CONDITIONS: human
For each record, check the reported CC50 at 3 days: if it is below 70 µM write yes, else write no.

Prompt line: In the record for O=c1cnc2cc(F)ccc2n1Cc1nc2cc(F)ccc2n1CCCCF , is CC50 at 3 days less than 70 µM?
Response line: no

Prompt line: In the record for O=c1cnc2ccc(F)cc2n1Cc1nc2cc(F)ccc2n1CCCCF , is CC50 at 3 days less than 70 µM?
Response line: no

Prompt line: In the record for CS(=O)(=O)CCCn1c(CN2C(=O)CN(C3CC3)c3ccncc32)nc2cc(Cl)ccc21 , is CC50 at 3 days less than 70 µM?
Response line: no

Prompt line: In the record for O=c1cnc2cnccc2n1Cc1nc2cc(F)ccc2n1CCCCF , is CC50 at 3 days less than 70 µM?
Response line: no

***
Prompt line: In the record for CC(C)CCn1c(Cn2c(=O)cnc3ccc(F)cc32)nc2nc(Cl)ccc21 , is CC50 at 3 days less than 70 µM?
Response line: no

Prompt line: In the record for Cn1nc(C(F)(F)F)cc1-c1ccc2ncc(=O)n(Cc3nc4cc(F)ccc4n3CCCCF)c2c1 , is CC50 at 3 days less than 70 µM?
Response line: yes

Prompt line: In the record for CS(=O)(=O)CCCn1c(Cn2c(=O)cnc3ccc(F)cc32)nc2cc(Br)ccc21 , is CC50 at 3 days less than 70 µM?
Response line: no

Prompt line: In the record for CC(C)CCn1c(Cn2c(=O)cnc3cc(F)ccc32)nc2nc(Cl)ccc21 , is CC50 at 3 days less than 70 µM?
Response line: no

Prompt line: In the record for Cc1nc(C)c(-c2ccc3ncc(=O)n(Cc4nc5cc(F)ccc5n4CCCCF)c3c2)s1 , is CC50 at 3 days less than 70 µM?
Response line: yes

Prompt line: In the record for O=c1cnc2ccc(-c3ccc(CCN4CCOCC4)cc3)cc2n1Cc1nc2cc(F)ccc2n1CCCCF [Compound P2] , is CC50 at 3 days less than 70 µM?
Response line: no

Prompt line: In the record for CC(C)CCn1c(Cn2c(=O)cnc3cnccc32)nc2nc(Cl)ccc21 , is CC50 at 3 days less than 70 µM?
Response line: no
